tgt: KRAS G13D (Homo sapiens, UniProt P01116+P62937, G13D)
Sequence (P01116 1-169 isoform P01116-2 G13D limits assumed): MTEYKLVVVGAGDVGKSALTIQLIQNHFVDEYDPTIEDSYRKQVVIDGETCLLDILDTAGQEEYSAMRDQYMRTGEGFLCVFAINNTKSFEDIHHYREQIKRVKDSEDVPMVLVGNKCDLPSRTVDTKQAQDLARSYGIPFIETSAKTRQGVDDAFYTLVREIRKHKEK
Sequence (P62937 whole entry): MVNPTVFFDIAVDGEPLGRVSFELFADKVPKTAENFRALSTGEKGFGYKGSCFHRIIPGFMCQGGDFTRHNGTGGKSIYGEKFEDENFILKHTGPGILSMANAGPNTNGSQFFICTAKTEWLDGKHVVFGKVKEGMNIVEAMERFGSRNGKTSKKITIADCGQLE
experiment_summary: Disruption of BRAF RBD interaction with Ras (FRET / MOA assay, with Cyclophilin A)
Format: biochemical
reported_conditions: KRAS G13D; read-out: KRAS G13D FRET data IC50
pIC50: −log10 of the molar value.
metric: pIC50

Below, each entry is followed by its recorded pIC50 result.
{"columns": ["compound", "tgt", "pIC50"],
 "data": [
  ["CCn1c(-c2cccnc2[C@H](C)OC)c2c3cc(ccc31)-c1csc(n1)C[C@H](NC(=O)[C@H](C(C)C)N(C)C(=O)N1CC3(CCN(C)CC3)C1)C(=O)N1CCC[C@H](N1)C(=O)OCC(C)(C)C2", "KRAS G13D (Homo sapiens, UniProt P01116+P62937, G13D)", "6.00 to 7.00"],
  ["CCn1c(-c2cccnc2[C@H](C)OC)c2c3cc(ccc31)-c1csc(n1)C[C@H](NC(=O)[C@H](C(C)C)N(C)C(=O)N1CCC13CN(C)C3)C(=O)N1CCC[C@H](N1)C(=O)OCC(C)(C)C2", "KRAS G13D (Homo sapiens, UniProt P01116+P62937, G13D)", "6.00 to 7.00"],
  ["CCn1c(-c2cncnc2)c2c3cc(ccc31)-c1cc(O)cc(c1)C[C@H](NC(=O)[C@H](C(C)C)N(C)C(=O)[C@H]1CCN(C(=O)C#CCN(C)C)C1)C(=O)N1CCC[C@H](N1)C(=O)OCC(C)(C)C2", "KRAS G13D (Homo sapiens, UniProt P01116+P62937, G13D)", "5.00 to 6.00"]
]}

Attention now shifts to the item below.
Incoming: Quick one: pIC50 of CCn1c(-c2cc(N3CCN(C)CC3)cnc2[C@H](C)OC)c2c3cc(ccc31)-c1cc(O)cc(c1)C[C@H](NC(=O)[C@H](C(C)C)N(C)C(=O)[C@@H]1OCC[C@@H]1c1ccccc1)C(=O)N1CCC[C@H](N1)C(=O)OCC(C)(C)C2 (atropisomer, axis not shown) ?
Outgoing: 7.00 to 8.00

---

tgt: KRAS WT (Homo sapiens, UniProt P01116+P62937)
Sequence (P01116 1-169 isoform P01116-2 limits assumed, one chain of several): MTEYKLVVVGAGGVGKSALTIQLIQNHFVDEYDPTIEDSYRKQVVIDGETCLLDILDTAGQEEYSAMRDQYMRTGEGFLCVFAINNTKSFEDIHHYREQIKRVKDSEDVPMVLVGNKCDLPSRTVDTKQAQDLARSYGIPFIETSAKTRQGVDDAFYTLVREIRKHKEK
experiment_summary: Disruption of BRAF RBD interaction with Ras (FRET / MOA assay, with Cyclophilin A)
Type: biochemical
reported_conditions: KRAS WT; read-out: KRAS WT FRET data IC50
metric: IC50

Some solved cases for reference:
{"columns": ["compound", "IC50"],
 "data": [
  ["CCn1c(-c2cccnc2[C@H](C)OC)c2c3cc(ccc31)-c1csc(n1)C[C@H](NC(=O)[C@H](C(C)C)N(C)C(=O)N1CC(NC)C1)C(=O)N1CCC[C@H](N1)C(=O)OCC(C)(C)C2 (atropisomer, axis not shown)", "100 to 1000 nM"],
  ["CCn1c(-c2cnccc2COC)c2c3cc(ccc31)-c1cc(O)cc(c1)C[C@H](NC(=O)[C@@H](OC(=O)N(C)C)C(C)C)C(=O)N1CCC[C@H](N1)C(=O)OCC(C)(C)C2", "1000 to 10000 nM"],
  ["CCn1c(-c2cccnc2[C@H](C)OC)c2c3cc(ccc31)-c1cc(O)cc(c1)C[C@H](NC(=O)[C@H](C1CCCC1)N(C)C(=O)N1CCS(=O)(=NC)CC1)C(=O)N1CCC[C@H](N1)C(=O)OCC(C)(C)C2", "10 to 100 nM"],
  ["CCn1c(-c2cnccc2COC)c2c3cc(ccc31)-c1cc(O)cc(c1)C[C@H](NC(=O)C1CCCC1C(F)F)C(=O)N1CCC[C@H](N1)C(=O)OCC(C)(C)C2 (some centres unmarked)", "1000 to 10000 nM"],
  ["CCn1c(-c2cccnc2[C@H](C)OC)c2c3cc(ccc31)-c1csc(n1)C[C@H](NC(=O)[C@H](C(C)C)N(C)C(=O)N1CCN(C(=O)CN(C)C)CC1)C(=O)N1CCC[C@H](N1)C(=O)OCC(C)(C)C2 (atropisomer, axis not shown)", "10 to 100 nM"],
  ["CCn1c(-c2cccnc2[C@H](C)OC)c2c3cc(ccc31)-c1csc(n1)C[C@H](NC(=O)[C@H](C(C)C)N(C)C(=O)N(C)C1CCC1)C(=O)N1CCC[C@H](N1)C(=O)OCC(C)(C)C2 (atropisomer, axis not shown)", "10 to 100 nM"],
  ["CCn1c(-c2cc(N3CCN(C)CC3)cnc2[C@H](C)OC)c2c3cc(ccc31)-c1cccc(c1)C[C@H](NC(=O)[C@H](C(C)C)N(C)C(=O)[C@@H]1OCC[C@@H]1c1ccccc1)C(=O)N1CCC[C@H](N1)C(=O)OCC(C)(C)C2 (atropisomer, axis not shown)", "10 to 100 nM"]
]}

For the next question, use this compound.
Incoming: Fill in: IC50 of CCn1c(-c2cccnc2[C@H](C)OC)c2c3cc(ccc31)-c1csc(n1)C[C@H](NC(=O)[C@H](C(C)C)N(C)C(=O)N1C[C@@H]3CN(C)C[C@@H]31)C(=O)N1CCC[C@H](N1)C(=O)OCC(C)(C)C2 (atropisomer, axis not shown) is ___
Outgoing: 1000 to 10000 nM

---

tgt: NRAS Q61R (Homo sapiens, UniProt P01111+P62937, Q61R)
Sequence (P01111 whole entry Q61R, one chain of several): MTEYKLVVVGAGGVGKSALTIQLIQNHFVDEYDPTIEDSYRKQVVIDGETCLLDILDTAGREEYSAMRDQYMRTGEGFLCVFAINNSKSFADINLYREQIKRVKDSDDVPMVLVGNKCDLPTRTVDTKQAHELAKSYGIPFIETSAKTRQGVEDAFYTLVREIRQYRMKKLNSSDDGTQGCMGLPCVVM
experiment_summary: Disruption of BRAF RBD interaction with Ras (FRET / MOA assay, with Cyclophilin A)
Type: biochemical
reported_conditions: NRAS Q61R; read-out: NRAS Q61R FRET data IC50
metric: IC50

{"columns": ["compound", "tgt", "IC50"],
 "data": [
  ["CCn1c(-c2cccnc2[C@H](C)OC)c2c3cc(ccc31)-c1cc(O)cc(c1)C[C@H](NC(=O)[C@H](C(C)C)N(C)C(=O)C1CCc3ccccc3N1)C(=O)N1CCC[C@H](N1)C(=O)OCC(C)(C)C2 (stereo partly drawn)", "NRAS Q61R (Homo sapiens, UniProt P01111+P62937, Q61R)", "100 to 1000 nM"],
  ["CCn1c(-c2cccnc2[C@H](C)OC)c2c3cc(ccc31)-c1csc(n1)C[C@H](NC(=O)[C@H](C1CCCC1)N(C)C(=O)N1CCN(C)CC1)C(=O)N1CCC[C@H](N1)C(=O)OCC(C)(C)C2", "NRAS Q61R (Homo sapiens, UniProt P01111+P62937, Q61R)", "100 to 1000 nM"],
  ["CCn1c(-c2cccnc2[C@H](C)OC)c2c3cc(ccc31)-c1csc(n1)C[C@H](NC(=O)[C@H](C(C)C)N(C)C(=O)N1CC([C@@H](C)NC)C1)C(=O)N1CCC[C@H](N1)C(=O)OCC(C)(C)C2 (atropisomer, axis not shown)", "NRAS Q61R (Homo sapiens, UniProt P01111+P62937, Q61R)", "100 to 1000 nM"]
]}

Batch: IC50 for all items listed.
1. C=CC(=O)N1CC[C@H](C(=O)N(C)[C@H](C(=O)N[C@H]2Cc3cc(O)cc(c3)-c3ccc4c(c3)c(c(-c3cc(C)cnc3[C@H](C)OC)n4CC)CC(C)(C)COC(=O)[C@@H]3CCCN(N3)C2=O)C(C)C)C1
2. CCn1c(-c2cccnc2[C@H](C)OC)c2c3cc(ccc31)-c1csc(n1)C[C@H](NC(=O)[C@H](C(C)C)N(C)C(=O)N1C[C@H](N)[C@@H](F)C1)C(=O)N1CCC[C@H](N1)C(=O)OCC(C)(C)C2 (atropisomer, axis not shown)

Outgoing:
["100 to 1000 nM", "100 to 1000 nM"]

Hi! Can you tell me IC50 for each of these compounds?
1. CCn1c(-c2cnccc2COC)c2c3cc(ccc31)-c1cc(O)cc(c1)C[C@H](NC(=O)[C@H](C(C)C)N(C)C(=O)[C@H]1CCN(S(=O)(=O)N3CC(O)C3)C1)C(=O)N1CCC[C@H](N1)C(=O)OCC(C)(C)C2
2. C=CC(=O)N1CCO[C@H]2CN(C(=O)N(C)[C@H](C(=O)N[C@H]3Cc4cccc(n4)-c4ccc5c(c4)c(c(-c4cccnc4[C@H](C)OC)n5CC(F)(F)F)CC(C)(C)COC(=O)C4CCCN(N4)C3=O)C(C)C)C[C@H]21 (stereo partly drawn)
3. CCn1c(-c2cccnc2[C@H](C)OC)c2c3cc(cnc31)-c1csc(n1)C[C@H](NC(=O)[C@H](C(C)C)N(C)C(=O)N1CC(OC)C1)C(=O)N1CCC[C@H](N1)C(=O)OCC(C)(C)C2
4. C=CS(=O)(=O)N1CC[C@H](C(=O)N(C)[C@H](C(=O)N[C@H]2Cc3cccc(c3)-c3ccc4c(c3)c(c(-c3cncnc3)n4CC)CC(C)(C)COC(=O)[C@@H]3CCCN(N3)C2=O)C(C)C)C1

Outgoing:
1000 to 10000 nM
100 to 1000 nM
1000 to 10000 nM
> 10000 nM
